All figures here come from the supplement of paper PMC10567573.

Parameter protein stability index: see the listing below.
Assay: protein stability index of a GFP-peptide fusion (GPS, HEK-293T) (PSI 1-6); higher = more stable;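 further: 24-mer peptide tiles fused after GFP, lentivirally expressed, FACS-sorted into six equal bins by GFP/DsRed ratio, decoded by Illumina sequencing, PSI is the read-weighted mean bin number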
Conditions: treatment: MLN4924 1 uM, 8 h; c terminus: a fixed tail appended
Respond with the number and no other words.

Worked examples follow.
LEFSLLSYAFGKFPTVVWTWWIMF [SOAT1] | 2.95
DLEVDMNKTEVTPRLWTTCRDGEV [ACSBG2] | 3.95

Please find the next sequence below.
# input Tell me measured protein stability index for NRRSSRETREYAPPSRGHGYRDYG [RBMY1A1] please.
# output 4.09

---

Parameter protein stability index: see the listing below.
Experiment: protein stability index of a GFP-peptide fusion (GPS, HEK-293T) (PSI 1-6); higher = more stable
Details: treatment: DMSO; c terminus: a fixed tail appended
Respond with the number and no other words.

FPKNRVLEGVIDRYQQSKAAALKC [TRIM9] | 2.78
LQGCSSIGLRLVLEYLYTANVTLS [KLHL14] | 3.07

# input Tell me measured protein stability index for AAAGAVGLERRDWSPSPPATPEQG [SPDEF] please.
# output 5.09

# input Tell me measured protein stability index for FGGGYGGGLGGGYGGGLGGGFGGG [KRT13] please.
# output 2.37

---

Experiment: protein stability index of a GFP-peptide fusion (GPS, HEK-293T) (PSI 1-6); higher = more stable
Details: treatment: DMSO; c terminus: a fixed tail appended
Assign met to entries whose protein stability index meets or exceeds 4; assign not met to the rest.

Worked examples follow.
PGPVCQPPVSQSRSLFSSVPSKPP [ANKRD40] | met
SPPSSSAASSYSFSDLNSTRGDAD [EMD] | met
FQESASTPETRAKFTQDNLCRAQR [TEKT4] | met

Now for another entry.
# input protein stability index >= 4 for ARGRHVGSSETNLLQHLLEACGRC [PYCR3] ?
# output not met

---

Experiment: protein stability index of a GFP-peptide fusion (GPS, HEK-293T) (PSI 1-6); higher = more stable
Details: treatment: DMSO; c terminus: a fixed tail appended
Assign 1 to entries whose protein stability index meets or exceeds 4; assign -1 to the rest.

KNWRNFASKWGMSYDELCFLEQRP [EDARADD] | -1
EHPNLVRDHVETELLKEAELIRNI [TEKT4] | 1
EGNECKKMDMSVLEISGIIMSRVN [PHTF1] | -1

# input protein stability index >= 4 for RAPAEKPRGARCSNGFPERDPPRP [GCH1] ?
# output 1

# input protein stability index >= 4 for CHPVERGIKSKEAEEYRLKEHYLT [PSD2] ?
# output 1

---

Test: protein stability index of a GFP-peptide fusion (GPS, HEK-293T) (PSI 1-6); higher = more stable
Details: treatment: DMSO; c terminus: a fixed tail appended
value_kind: protein stability index
Respond with the number and no other words.

Worked examples follow.
EPSIAPTSCAGNLPSRPPPLLSPL [RSPH3] | 3.72
TLIPTCKFYTWLWGVFYYFVSALG [SCD] | 2
GLAGLLPASYTAPIMSGQGLAGFF [SLC29A1] | 2.06

# input Tell me measured protein stability index for QASVSCALEALEPFWEVLVRSTET [HDAC6] please.
# output 2.64

# input Tell me measured protein stability index for FETQLKTLCQFPETLLGDPKRRMR [KCNA3] please.
# output 3.54

# input Tell me measured protein stability index for VIDDAKQYVYIAVMDYLPISSTST [PLD5] please.
# output 2.54
